Values were extracted from PubChem BioAssay AID179.

System: CEM cells HIV-1 protection, formazan growth assay
Assay: NCI AIDS Antiviral Assay
Measurement kind: EC50

C1=C(c2ccccc2)C(N2CCOCC2)Oc2ccccc21 (stereo unspecified)	> 200 µM
COc1ccc(NS(=O)c2ccc(Cl)cc2)cc1 (stereo unspecified)	> 200 µM
CCOC(=O)C(C)P(=O)(OC)OC (stereo unspecified)	> 200 µM
CCOC(=O)c1c(N2CCCC2)nsc1Nc1ccccc1	> 200 µM
CC1(C)CC(N2CCN(C3CC(C)(C)NC(C)(C)C3)CC2)CC(C)(C)N1	> 339 µM
O=S(=O)(O/C1=C/CCCCCC1)C(F)(F)F	> 100 µM
C[N+]1(CC(=O)c2ccc(O)c(O)c2)CCOCC1	> 200 µM
CCOC(=O)C12C(C(=O)O)=C(N)CN1CCc1c2[nH]c2ccccc12 (stereo unspecified)	> 58.9 µM
COc1ccc(N=C2C(=Nc3ccc(OC)cc3)N(S(=O)(=O)c3ccccc3)C(=S)N2c2ccccc2)cc1	> 200 µM
COc1ccc2nc3c([N+](=O)[O-])ccc4c3c(c2c1)NCCN4CCN(C)C	> 200 µM
Brc1cc2[nH]c(-c3ccccc3)c(Br)c2c(Br)c1Br	> 200 µM

====

System: CEM cells HIV-1 protection, formazan growth assay
Experiment: NCI AIDS Antiviral Assay;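 active = compounds giving half or more protection of infected cells from virus-caused growth loss, again on retest; inactive = the rest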
Labels: 1 for active, -1 for inactive

COC(=O)c1cc(C(=O)OC)c(C/C(=N/NC(=O)C[N+](C)(C)C)C(=O)Nc2cccc(C(F)(F)F)c2)nc1C/C(=N/NC(=O)C[N+](C)(C)C)C(=O)Nc1cccc(C(F)(F)F)c1	-1
c1coc(-c2cc(-c3cc(-c4ccco4)on3)no2)c1	-1
COc1ccc(/C=C/c2ccc3ccccc3[n+]2C)cc1OC	-1
CC(C)OP(=O)(OC(C)C)C(Nc1cccc(C(F)(F)F)c1)c1ccccc1 (stereo unspecified)	-1
Cc1cn(C2CC(N=[N+]=[N-])C(COC(=O)CCCCCCCCCCOc3ccc(I)cc3)O2)c(=O)[nH]c1=O (stereo unspecified)	1
CSc1ncnc2c1ncn2CCC#N	-1
Cc1cc(C)cc(NC(N)=S)c1	-1
CC(C)N=C(N)NC#N	-1
CN(c1ccccc1Cl)S(=O)(=O)c1ccc([N+](=O)[O-])cc1	-1
Cn1c2c(c(=O)n(C)c1=O)C(C(=O)O)CC(=O)N2 (stereo unspecified)	-1
C=C1C(=O)O[C@H]2CC(C)C3C(O)CC(O)[C@@]3(C)C[C@H]12 (stereo partly specified)	-1
Clc1c(Cl)c(Cl)c2nn(C3CCCO3)nc2c1Cl (stereo unspecified)	-1
NC(=O)c1cccc(OCC(O)CO)c1 (stereo unspecified)	-1
CN(C)CCNC(=O)Cn1cnc2cccc([N+](=O)[O-])c2c1=O	-1
C[CH2][Ge]([CH2]C)([CH2]C)[O]C(=O)C(OC(C)=O)c1ccccc1 (stereo unspecified)	-1
CCCOC(=O)c1cc(OC(C)=O)c2c(OC)ccc(OC)c2c1	1
Cc1ccc(C(=O)N2c3ccccc3N(C)n3cccc3C2CC(=O)O)cc1 (stereo unspecified)	-1
O=C(O)C1CSC(c2cccs2)N1 (stereo unspecified)	-1
COc1cc(/C=N/Nc2nnc3c4ccccc4c4ncccc4c3n2)cc(OC)c1OC	-1
Cc1c(/C=N/NC(=O)c2ccccc2)c(=O)n(-c2ccccc2)n1C	-1
CC(C)CCCC(C)[C@H]1CC[C@H]2[C@H]3CC[C@H]4C[C@@H](CCC=C(c5cc(Cl)c(O)c(C(=O)O)c5)c5cc(Cl)c(O)c(C(=O)O)c5)CC[C@]4(C)[C@H]3CC[C@]12C (stereo partly specified)	-1

====

Reported values of EC50 for individual entries
System: CEM cells HIV-1 protection, formazan growth assay
Assay: NCI AIDS Antiviral Assay
Measurement kind: EC50

S=c1nc(-c2ccnc(-c3nc(=S)[nH][nH]3)c2)[nH][nH]1	> 25.7 µM
CC(C)(CO)N1C(=O)c2ccccc2C1(O)c1ccc(Cl)cc1 (stereo unspecified)	> 200 µM
Clc1ccc(/C(=C/c2ccccc2)Cn2ccnc2)cc1	> 200 µM
CC(=O)OCC1=C2C(OC(=O)C(C)C)CC3(COC(C)=O)OC3/C=C\C3(C)OC3C2OC1=O (stereo unspecified)	> 200 µM
COC1CC(C)(NC(C)=O)C2OC(c3ccccc3)OCC2O1 (stereo unspecified)	> 200 µM
CC1(C)C=[N+]([O-])C(C)(C)N1O	> 200 µM

====

Tested on: CEM cells HIV-1 protection, formazan growth assay
Test: NCI AIDS Antiviral Assay
Conditions: measured here: growth of uninfected CEM cells
Protocol: The ability of compounds to protect human CEM cells from HIV-1 infection is measured as a screen for new compounds capable of inhibiting the HIV virus. Five concentrations of drug were tested on uninfected and infected cells and cell growth was measured using a soluble formazan assay. […] Compounds that provided at least 50% protection were retested. Compounds that provided at least 50% protection on retest were listed as moderately active. […]
pIC50: −log10 of the molar value.
Measurement kind: pIC50

CCOC(=O)c1c(N2CCCC2)nsc1Nc1ccccc1	3.84
C[C@H](CCC1=NCCN1)[C@H]1CC[C@H]2[C@@H]3[C@H](O)C[C@@H]4C[C@H](O)CC[C@]4(C)[C@H]3CC[C@]12C	4.62
CC1(c2cccc3ccccc23)OC(=O)c2cccc(F)c21 (centres undefined)	5.23
COc1ccc(C(c2c(O)c3ccccc3oc2=O)N2CCOCC2)c(OC)c1 (centres undefined)	4.04
Nc1ccc(SSc2ccc(Nc3ccnc4cc(Cl)ccc34)cc2)cc1	5.30
COc1ccc(-c2c(C(C)=O)c(C)n(C3OC(CO)C(O)C(O)C3O)c(=S)c2C#N)cc1 (centres undefined)	4.23
Cc1c2ccccc2nc(CCl)[n+]1[O-]	5.49

====

Tested on: CEM cells HIV-1 protection, formazan growth assay
Assay: NCI AIDS Antiviral Assay
Measurement kind: EC50

CCOC(=O)[C@H]1Nc2ccc(Cl)cc2[C@H]2CCC[C@@H]12	> 67.6 µM
Nc1nccc(Nc2ccc(S(N)(=O)=O)cc2)n1	> 200 µM
CCOC(=O)NN(C(=O)OCC)C(C(=O)c1ccccc1)N(NC(=O)OCC)C(=O)OCC	> 200 µM
Cc1c(C)c2c(c(N)c1C#N)C(=O)N(Nc1ccccc1)C2=O	> 200 µM
O=C1NC(=O)C(CN2C(=O)/C(=C/c3cccc(O)c3)SC2=S)C(=O)N1	> 200 µM
C/C(=C\C(=O)c1ccc(Sc2ccccc2)cc1)c1ccc(Sc2ccccc2)cc1	> 200 µM
CN(C)COC(=S)SSSC(=S)OCN(C)C	0.195 µM
CC(C)c1ccc(/C=C/c2cc(C(=O)NNC(=O)NC3CCCCC3)nc(=S)[nH]2)cc1	> 6.17 µM
COc1cc(C(C)O)c[n+](Cc2ccccc2)c1 (stereo unspecified)	> 302 µM
OCC1OC(n2nc(-c3ccccc3)nc2-c2cnccn2)C(O)C(O)C1O (stereo unspecified)	> 200 µM
CC1=NCCc2c1[nH]c1cc(O)ccc21	> 398 µM

====

Known pEC50 of a selection of compounds
Tested on: CEM cells HIV-1 protection, formazan growth assay
Assay: NCI AIDS Antiviral Assay
pEC50: −log10 of the molar value.
Measurement kind: pEC50

Cc1cc(Cl)cc2c1NC(=O)C2(O)C(C)C(=O)c1ccc(Cl)cc1 (stereo unspecified)	< 3.73
CO/C(N)=C(\C#N)N=Cc1ccc2ccccc2c1	< 3.70
Cc1cc(=O)oc2c(C)c3oc(CBr)c(Br)c3cc12	< 3.70
O=C1CC(c2ccccc2)C2(C(=O)NC(=S)NC2=O)C(c2ccccc2)C1 (stereo unspecified)	< 4.12
O=CC1=CCCN(CCc2c[nH]c3ccccc23)C1	< 3.71
CC(C)=CCC1(O)C(=O)c2ccccc2C1(O)C(=O)O (stereo unspecified)	< 3.70

====

Attribute: IC50
Test system: CEM cells HIV-1 protection, formazan growth assay
Assay: NCI AIDS Antiviral Assay
Conditions: measured here: growth of uninfected CEM cells
Where a SMILES comes first, the peptide text is derived from it. The star is where a group is joined. Boc = CC(C)(C)OC(=O)*
Measurement kind: IC50

COc1cc(Cc2nnc(SC)nc2C)cc(OC)c1OC	22.4 µM
COC1/C=C\C=C(/C)C(=O)Nc2cc3nc4ccc(Br)cc4oc-3c(c2=O)CC(C)CC(OC)C(O)C(C)/C=C(\C)C1OC(N)=O (stereo not drawn)	0.0115 µM
CCOC(=O)CSC(=O)NCCCl	537 µM
COc1ccc2c(c1)C(=O)OCCC2	> 200 µM
COc1c2occc2c(OC)c2c(=O)c(S(=O)(=O)NC(=O)Nc3ccc(Cl)cc3)coc12	97.7 µM
O=C1Nc2cnc(Cl)nc2Nc2ccccc21	> 75.9 µM
C=CC1(C)CN(Cc2ccccc2)C(C(=O)OCC)O1 (stereo not drawn)	> 26.3 µM
CC(=O)CC(O)(C(F)(F)Cl)C(F)(Cl)Cl (stereo not drawn)	> 200 µM
O=c1[nH]c(=O)n(C2CC(O)C(CO)O2)cc1COCC(F)(F)F (stereo not drawn)	> 251 µM
CC(=O)N1CCC23c4ccccc4N(C)C2CC(=O)CC13 (stereo not drawn)	> 871 µM
O=c1cn[nH]c2c(Br)cc(Br)cc12	> 70.8 µM
CNC(=O)CN(CC(N)=O)C(N)=O	> 191 µM
CC(=O)OC[C@@H](OC(C)=O)[C@@H](OC(C)=O)[C@H]1OC[C@@H]2C[C@H]([C@H]1OC(C)=O)N(Cc1ccccc1)O2	> 200 µM
CC(C)(c1ccc(OC#N)cc1)c1ccc(OC#N)cc1	> 67.6 µM
CCN(CC)CCCC(C)Nc1cc(-c2ccccc2)nc2ccccc12 (stereo not drawn)	7.76 µM
Cn1c(N)c(-c2c3ccccc3nc3ccccc23)c(=O)n(C)c1=O	> 40.7 µM
C=C1c2nc3ccccc3n2C=C(c2ccccc2)N1c1ccc(OC)cc1	12.9 µM
COc1ccc2c(c1)[C@@H](NC(C)=O)CCc1cc(OC)c(OC)c(OC)c1-2	0.011 µM
CC1CN=C(N(C(=O)Nc2ccccc2)c2ccccc2)S1 (stereo not drawn)	> 200 µM
O=C(O)c1cccc(S(=O)(=O)NN2C(=O)CSC2c2ccccc2Cl)c1 (stereo not drawn)	166 µM
CC1=CC(C)(C)N=C2SC(COc3ccccc3)=NN12	34.7 µM
CC(=O)N/C(=C\C=C\CC=O)SC12CC3CC(CC(C3)C1)C2	12.6 µM
CCOC(=O)C(NC(=O)c1[nH]cnc1/N=N/N(C)C)C(C)C (stereo not drawn)	> 23.4 µM
CCOP(=S)(OCC)SC(C)(C)C	> 107 µM
C=C(C)C(=O)O[C@H]1[C@H]2[C@H](OC(=O)[C@H]2C)[C@H](O)[C@@H](C)[C@@H]2C=CC(=O)[C@]21C	1.91 µM
Cc1cn(C2OC(CO[Si](C)(C)C(C)(C)C)/C(=C\C#N)C2O[Si](C)(C)C(C)(C)C)c(=O)[nH]c1=O (stereo not drawn)	> 200 µM
CCN(CC)C(=O)c1ccc(O)c(OC)c1	> 200 µM
S=C(NCCSSCCNC(=S)Nc1ccccc1)Nc1ccccc1	35.5 µM
Cc1cc(O)oc(=O)c1	> 2000 µM
O=P(Oc1ccccc1)(Oc1ccccc1)N1CCOCC1	170 µM
CCCCC12C3CC4C5C(C)/C(=C6\OC(=O)C(C)=C6OC)OC5(O3)C1CCN42 (stereo not drawn)	> 50.1 µM
O=C1CCCSC(=O)N1Cc1ccccc1	> 200 µM
O=C(OCc1ccccc1)C(Cc1ccccc1)N(Cc1ccccc1)Cc1ccccc1 (stereo not drawn)	> 200 µM
CCOC(=O)c1nc2cc(C(F)(F)F)ccc2nc1Nc1ccc(OC)cc1	> 126 µM
COc1ccc(N2C(=O)C3c4[nH]c5ccc(OCc6ccccc6)cc5c4C4CCC(C(C)C)CC4C3C2=O)cc1 (stereo not drawn)	> 100 µM
CCCCCCCCCCCCCCOP(=O)(O)OCCC=C(c1cc(Cl)c(O)c(C(=O)O)c1)c1cc(Cl)c(O)c(C(=O)O)c1	> 100 µM
CC(C)=CCC[C@@H](C)C1=C(O)C(O)C(C)=C2N=C(c3ccccc3)C(=O)OC21 (stereo partly drawn)	3.8 µM
c1ccc([P+](Cc2ccc(C[P+](c3ccccc3)(c3ccccc3)c3ccccc3)cc2)(c2ccccc2)c2ccccc2)cc1	38 µM
CCC(=O)NC(OCC1(CC)COC1)(C(F)(F)F)C(F)(F)F	> 200 µM
N=C(N)SSC(=N)N	> 100 µM
CC(C)(C)OC(=O)NC(Cc1ccc(O)cc1)C(=O)N1CCCC1C(=O)O (stereo not drawn) (Boc-Tyr-Pro-OH; configuration not given here)	269 µM
COC(=O)N1CC=CC2(CCOCc3ccccc3)CC[C@@](O)(c3ccccc3NC(=O)C(C)(C)C)C(=O)C12 (stereo partly drawn)	> 35.5 µM
COc1ccc2nc3c([N+](=O)[O-])ccc4c3c(c2c1)NCCN4CCO	0.398 µM
